tested on: 624824-186-R-J3-PDC multicell spheroids, viability; experiment: Anticancer human tumor 624824-186-R-J3-PDC patient-derived colon adenocarcinoma cell line growth inhibition [PI3K]; conditions: second compound 0.316 µM; first compound 0.1 µM; active compounds read low
parameter: viability, T/C (%)
Respond numerically; units are % and should not be typed.

With 624824-186-R-J3-PDC multicell spheroids, viability as the test system, C[C@@H](NC(=O)c1ncnc(N)c1Cl)c1ncc(C(=O)Nc2cc(C(F)(F)F)c(Cl)cn2)s1 + COc1c(OCCCN2CCOCC2)ccc2c3n(c(=NC(=O)c4cnc(N)nc4)nc12)CCN3 showed viability, T/C of 60.6

With 624824-186-R-J3-PDC multicell spheroids, viability as the test system, CC(Cn1ccc(-c2ccc(C#N)c(Cl)c2)n1)NC(=O)c1cc(C(C)O)[nH]n1 (stereo not drawn) + Cc1nc(NC(=O)N2CCCC2C(N)=O)sc1-c1ccnc(C(C)(C)C(F)(F)F)c1 showed viability, T/C of 101

With 624824-186-R-J3-PDC multicell spheroids, viability as the test system, CC(C)NCC(C(=O)N1CCN(c2ncnc3c2C(C)CC3O)CC1)c1ccc(Cl)cc1 (stereo not drawn) + COc1c(OCCCN2CCOCC2)ccc2c3n(c(=NC(=O)c4cnc(N)nc4)nc12)CCN3 showed viability, T/C of 49

----------
For each entry below, report its viability, T/C value.
test system: 624824-186-R-J3-PDC multicell spheroids, viability; experiment: Anticancer human tumor 624824-186-R-J3-PDC cell line growth inhibition [PI3K]; settings: second compound 0.01 µM; first compound 0.0316 µM; active compounds read low;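 further: luminescent signal used as a stand-in for spheroid viability; spheroids exposed to agents for seven days before luminescence read; percent viability relative to DMSO vehicle control wells taken as 100%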
Respond numerically; units are % and should not be typed.

The measured viability, T/C associated with C[C@@H](NC(=O)c1ncnc(N)c1Cl)c1ncc(C(=O)Nc2cc(C(F)(F)F)c(Cl)cn2)s1 + COc1c(OCCCN2CCOCC2)ccc2c3n(c(=NC(=O)c4cnc(N)nc4)nc12)CCN3 reads 107

The measured viability, T/C associated with C#Cc1c(F)ccc2cc(O)cc(-c3ncc4c(N5CC6CCC(C5)N6)nc(OCC56CCCN5CC(F)C6)nc4c3F)c12 (centres undefined) + COc1c(OCCCN2CCOCC2)ccc2c3n(c(=NC(=O)c4cnc(N)nc4)nc12)CCN3 reads 103

The measured viability, T/C associated with CC(=O)c1c(C)c2cnc(Nc3ccc(N4CCNCC4)cn3)nc2n(C2CCCC2)c1=O + CC(Nc1ccc2c(c1)OCCn1cc(N3C(=O)OCC3C(F)F)nc1-2)C(N)=O reads 108

The measured viability, T/C associated with Cn1ncc(Cl)c1-c1cc(C(=O)NC(CN)Cc2cccc(F)c2)sc1Cl (centres undefined) + CC(Nc1ccc2c(c1)OCCn1cc(N3C(=O)OCC3C(F)F)nc1-2)C(N)=O reads 103

----------
system: 624824-186-R-J3-PDC multicell spheroids, viability; assay: Anticancer human tumor 624824-186-R-J3-PDC cell line growth inhibition [PI3K]; details: second compound 0.00316 µM; first compound 10 µM; active = viability on the fitted dose curve at most 10% of control; inactive = the rest;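 further: luminescent signal used as a stand-in for spheroid viability; spheroids exposed to agents for seven days before luminescence read; percent viability relative to DMSO vehicle control wells taken as 100%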
Give one outcome, nothing more. List: label 1 (active), label 0 (inactive)

q: Entry CC1(C)CCC(Nc2ncc(C(F)(F)F)c(-c3c[nH]c4c(P(C)(C)=O)c(C#N)ccc34)n2)CN1 (stereo not given) + COc1c(OCCCN2CCOCC2)ccc2c3n(c(=NC(=O)c4cnc(N)nc4)nc12)CCN3 : call = ?
a: label 1

q: Entry C=CC(=O)N1CCN(c2nc(=O)n(-c3c(C)ccnc3C(C)C)c3nc(-c4c(O)cccc4F)c(F)cc23)C(C)C1 (stereo not given) + COc1c(OCCCN2CCOCC2)ccc2c3n(c(=NC(=O)c4cnc(N)nc4)nc12)CCN3 : call = ?
a: label 0

q: Entry C#Cc1c(F)ccc2cc(O)cc(-c3ncc4c(N5CC6CCC(C5)N6)nc(OCC56CCCN5CC(F)C6)nc4c3F)c12 (stereo not given) + COc1c(OCCCN2CCOCC2)ccc2c3n(c(=NC(=O)c4cnc(N)nc4)nc12)CCN3 : call = ?
a: label 0

q: Entry CCCS(=O)(=O)Nc1ccc(F)c(C(=O)c2c[nH]c3ncc(-c4ccc(Cl)cc4)cc23)c1F + CC(Nc1ccc2c(c1)OCCn1cc(N3C(=O)OCC3C(F)F)nc1-2)C(N)=O : call = ?
a: label 0

q: Entry C=CC(=O)N1CCN(c2nc(=O)n(-c3c(C)ccnc3C(C)C)c3nc(-c4c(O)cccc4F)c(F)cc23)C(C)C1 (stereo not given) + CC(Nc1ccc2c(c1)OCCn1cc(N3C(=O)OCC3C(F)F)nc1-2)C(N)=O : call = ?
a: label 0

q: Entry CC1(C)CCC(CN2CCN(c3ccc(C(=O)NS(=O)(=O)c4ccc(NCC5CCOCC5)c([N+](=O)[O-])c4)c(Oc4cnc5[nH]ccc5c4)c3)CC2)=C(c2ccc(Cl)cc2)C1 + COc1c(OCCCN2CCOCC2)ccc2c3n(c(=NC(=O)c4cnc(N)nc4)nc12)CCN3 : call = ?
a: label 0

q: Entry CC(C)NCC(C(=O)N1CCN(c2ncnc3c2C(C)CC3O)CC1)c1ccc(Cl)cc1 (stereo not given) + CC(Nc1ccc2c(c1)OCCn1cc(N3C(=O)OCC3C(F)F)nc1-2)C(N)=O : call = ?
a: label 0

q: Entry CC(Cn1ccc(-c2ccc(C#N)c(Cl)c2)n1)NC(=O)c1cc(C(C)O)[nH]n1 (stereo not given) + COc1c(OCCCN2CCOCC2)ccc2c3n(c(=NC(=O)c4cnc(N)nc4)nc12)CCN3 : call = ?
a: label 0

q: Entry CC(C)NCC(C(=O)N1CCN(c2ncnc3c2C(C)CC3O)CC1)c1ccc(Cl)cc1 (stereo not given) + COc1c(OCCCN2CCOCC2)ccc2c3n(c(=NC(=O)c4cnc(N)nc4)nc12)CCN3 : call = ?
a: label 0

q: Entry C#Cc1c(F)ccc2cc(O)cc(-c3ncc4c(N5CC6CCC(C5)N6)nc(OCC56CCCN5CC(F)C6)nc4c3F)c12 (stereo not given) + CC(Nc1ccc2c(c1)OCCn1cc(N3C(=O)OCC3C(F)F)nc1-2)C(N)=O : call = ?
a: label 0

----------
system: 624824-186-R-J3-PDC multicell spheroids, viability; experiment: Anticancer human tumor 624824-186-R-J3-PDC cell line growth inhibition [PI3K]; conditions: second compound 1 µM; first compound 0.1 µM; active compounds read low;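 further: luminescent signal used as a stand-in for spheroid viability; spheroids exposed to agents for seven days before luminescence read; percent viability relative to DMSO vehicle control wells taken as 100%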
For each entry below, report its viability, T/C value.

The measured viability, T/C associated with C=CC(=O)N1CCN(c2nc(=O)n(-c3c(C)ccnc3C(C)C)c3nc(-c4c(O)cccc4F)c(F)cc23)C(C)C1 (stereo unspecified) + CC(Nc1ccc2c(c1)OCCn1cc(N3C(=O)OCC3C(F)F)nc1-2)C(N)=O reads 83.7%

The measured viability, T/C associated with CC(C)n1nc(-c2ccc3oc(N)nc3c2)c2c(N)ncnc21 + CC(Nc1ncnc2nc[nH]c12)c1cc2cccc(Cl)c2c(=O)n1-c1ccccc1 reads 62.2%

The measured viability, T/C associated with CC(C)n1nc(-c2ccc3oc(N)nc3c2)c2c(N)ncnc21 + CC(Nc1ccc2c(c1)OCCn1cc(N3C(=O)OCC3C(F)F)nc1-2)C(N)=O reads 26.2%

The measured viability, T/C associated with CCN1CCN(Cc2ccc(Nc3ncc(F)c(-c4cc(F)c5nc(C)n(C(C)C)c5c4)n3)nc2)CC1 + COc1c(OCCCN2CCOCC2)ccc2c3n(c(=NC(=O)c4cnc(N)nc4)nc12)CCN3 reads 24.3%

The measured viability, T/C associated with C[C@@H](NC(=O)c1ncnc(N)c1Cl)c1ncc(C(=O)Nc2cc(C(F)(F)F)c(Cl)cn2)s1 + CC(Nc1ncnc2nc[nH]c12)c1cc2cccc(Cl)c2c(=O)n1-c1ccccc1 reads 94.4%

The measured viability, T/C associated with C[C@@H](NC(=O)c1ncnc(N)c1Cl)c1ncc(C(=O)Nc2cc(C(F)(F)F)c(Cl)cn2)s1 + Cc1nc(NC(=O)N2CCCC2C(N)=O)sc1-c1ccnc(C(C)(C)C(F)(F)F)c1 reads 110%

----------
test system: 624824-186-R-J3-PDC multicell spheroids, viability; assay: Anticancer human tumor 624824-186-R-J3-PDC cell line growth inhibition [PI3K]; conditions: second compound 3.16 µM; first compound 0.316 µM; active compounds read low;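 further: luminescent signal used as a stand-in for spheroid viability; spheroids exposed to agents for seven days before luminescence read; percent viability relative to DMSO vehicle control wells taken as 100%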
Please respond with Criterion met when measured viability, T/C is strictly beneath 90%, and with Criterion not met in all other cases.

q: Field: below-cutoff. Rule: recorded viability, T/C strictly less than 90%. Subject: CCCS(=O)(=O)Nc1ccc(F)c(C(=O)c2c[nH]c3ncc(-c4ccc(Cl)cc4)cc23)c1F + Cc1nc(NC(=O)N2CCCC2C(N)=O)sc1-c1ccnc(C(C)(C)C(F)(F)F)c1
a: Criterion met

q: Field: below-cutoff. Rule: recorded viability, T/C strictly less than 90%. Subject: Cn1nccc1Nc1nccc(-c2ccn(C(CO)c3ccc(Cl)c(F)c3)c(=O)c2)n1 (stereo unspecified) + CC(Nc1ncnc2nc[nH]c12)c1cc2cccc(Cl)c2c(=O)n1-c1ccccc1
a: Criterion met

q: Field: below-cutoff. Rule: recorded viability, T/C strictly less than 90%. Subject: Cn1nccc1Nc1nccc(-c2ccn(C(CO)c3ccc(Cl)c(F)c3)c(=O)c2)n1 (stereo unspecified) + Cc1nc(NC(=O)N2CCCC2C(N)=O)sc1-c1ccnc(C(C)(C)C(F)(F)F)c1
a: Criterion met

q: Field: below-cutoff. Rule: recorded viability, T/C strictly less than 90%. Subject: CCN1CCN(Cc2ccc(Nc3ncc(F)c(-c4cc(F)c5nc(C)n(C(C)C)c5c4)n3)nc2)CC1 + Cc1nc(NC(=O)N2CCCC2C(N)=O)sc1-c1ccnc(C(C)(C)C(F)(F)F)c1
a: Criterion met

q: Field: below-cutoff. Rule: recorded viability, T/C strictly less than 90%. Subject: CC1(C)CCC(CN2CCN(c3ccc(C(=O)NS(=O)(=O)c4ccc(NCC5CCOCC5)c([N+](=O)[O-])c4)c(Oc4cnc5[nH]ccc5c4)c3)CC2)=C(c2ccc(Cl)cc2)C1 + CC(Nc1ncnc2nc[nH]c12)c1cc2cccc(Cl)c2c(=O)n1-c1ccccc1
a: Criterion not met

q: Field: below-cutoff. Rule: recorded viability, T/C strictly less than 90%. Subject: CC1(C)CCC(Nc2ncc(C(F)(F)F)c(-c3c[nH]c4c(P(C)(C)=O)c(C#N)ccc34)n2)CN1 (stereo unspecified) + CC(Nc1ncnc2nc[nH]c12)c1cc2cccc(Cl)c2c(=O)n1-c1ccccc1
a: Criterion met

q: Field: below-cutoff. Rule: recorded viability, T/C strictly less than 90%. Subject: C[C@@H](NC(=O)c1ncnc(N)c1Cl)c1ncc(C(=O)Nc2cc(C(F)(F)F)c(Cl)cn2)s1 + CC(Nc1ncnc2nc[nH]c12)c1cc2cccc(Cl)c2c(=O)n1-c1ccccc1
a: Criterion not met

q: Field: below-cutoff. Rule: recorded viability, T/C strictly less than 90%. Subject: C[C@@H](NC(=O)c1ncnc(N)c1Cl)c1ncc(C(=O)Nc2cc(C(F)(F)F)c(Cl)cn2)s1 + Cc1nc(NC(=O)N2CCCC2C(N)=O)sc1-c1ccnc(C(C)(C)C(F)(F)F)c1
a: Criterion met

q: Field: below-cutoff. Rule: recorded viability, T/C strictly less than 90%. Subject: CCCS(=O)(=O)Nc1ccc(F)c(C(=O)c2c[nH]c3ncc(-c4ccc(Cl)cc4)cc23)c1F + CC(Nc1ncnc2nc[nH]c12)c1cc2cccc(Cl)c2c(=O)n1-c1ccccc1
a: Criterion not met

q: Field: below-cutoff. Rule: recorded viability, T/C strictly less than 90%. Subject: C#Cc1c(F)ccc2cc(O)cc(-c3ncc4c(N5CC6CCC(C5)N6)nc(OCC56CCCN5CC(F)C6)nc4c3F)c12 (stereo unspecified) + Cc1nc(NC(=O)N2CCCC2C(N)=O)sc1-c1ccnc(C(C)(C)C(F)(F)F)c1
a: Criterion met

q: Field: below-cutoff. Rule: recorded viability, T/C strictly less than 90%. Subject: CC1(C)CCC(Nc2ncc(C(F)(F)F)c(-c3c[nH]c4c(P(C)(C)=O)c(C#N)ccc34)n2)CN1 (stereo unspecified) + Cc1nc(NC(=O)N2CCCC2C(N)=O)sc1-c1ccnc(C(C)(C)C(F)(F)F)c1
a: Criterion met

q: Field: below-cutoff. Rule: recorded viability, T/C strictly less than 90%. Subject: C#Cc1c(F)ccc2cc(O)cc(-c3ncc4c(N5CC6CCC(C5)N6)nc(OCC56CCCN5CC(F)C6)nc4c3F)c12 (stereo unspecified) + CC(Nc1ncnc2nc[nH]c12)c1cc2cccc(Cl)c2c(=O)n1-c1ccccc1
a: Criterion not met

q: Field: below-cutoff. Rule: recorded viability, T/C strictly less than 90%. Subject: Cn1ncc(Cl)c1-c1cc(C(=O)NC(CN)Cc2cccc(F)c2)sc1Cl (stereo unspecified) + Cc1nc(NC(=O)N2CCCC2C(N)=O)sc1-c1ccnc(C(C)(C)C(F)(F)F)c1
a: Criterion met

q: Field: below-cutoff. Rule: recorded viability, T/C strictly less than 90%. Subject: Cn1ncc(Cl)c1-c1cc(C(=O)NC(CN)Cc2cccc(F)c2)sc1Cl (stereo unspecified) + CC(Nc1ncnc2nc[nH]c12)c1cc2cccc(Cl)c2c(=O)n1-c1ccccc1
a: Criterion met

q: Field: below-cutoff. Rule: recorded viability, T/C strictly less than 90%. Subject: CC(C)NCC(C(=O)N1CCN(c2ncnc3c2C(C)CC3O)CC1)c1ccc(Cl)cc1 (stereo unspecified) + Cc1nc(NC(=O)N2CCCC2C(N)=O)sc1-c1ccnc(C(C)(C)C(F)(F)F)c1
a: Criterion met

q: Field: below-cutoff. Rule: recorded viability, T/C strictly less than 90%. Subject: C=CC(=O)N1CCN(c2nc(=O)n(-c3c(C)ccnc3C(C)C)c3nc(-c4c(O)cccc4F)c(F)cc23)C(C)C1 (stereo unspecified) + CC(Nc1ncnc2nc[nH]c12)c1cc2cccc(Cl)c2c(=O)n1-c1ccccc1
a: Criterion not met
